Target system: T1, cyno PD-1 (SPR analyte) (cynomolgus monkey)
T1 construct: Construct of the soluble analyte is not described; also called cynomolgus PD-1
Assay explanation: SPR, ProteOn XPR36, mAb captured by anti-human IgG Fc, cyno PD-1 as analyte, 25 C
Entries and their measured kon follow.
Your answer is read as M⁻¹ s⁻¹, so omit the unit and give the number.

{"columns": ["Binder", "kon [M⁻¹ s⁻¹]"],
 "data": [
  ["PD1B1094 (antibody, human IgG1, kappa, V domains shown, IgG1; also called PD1H586/PD1L652; E57H (VH), S30P (VL) variant of PD1B878) VH: QVQLVQSGSELKKPGASVKVSCKASGYTFTDYSMHWVRQAPGQGLEWMGWINIETGHPTYAQGFTGRFVFSLDTSVSTAYLQISSLKAEDTAVYFCARDYYGTYFYAMDYWGQGTLVTVSS VL: EIVLTQSPATLSLSPGERATLSCTASSSVPSSYLHWYQQKPGLAPRLLIYSTSNLASGIPDRFSGSGSGTDYTLTISRLEPEDFAVYYCHQYHRSPLTFGQGTKLEIKR", 135000]
]}

We now examine a further binder.
-- ask Return reported kon; argument: PD1B1089 (antibody, human IgG1, kappa, V domains shown, IgG1; also called PD1H405/PD1L652; S30P (VL) variant of PD1B878) VH: QVQLVQSGSELKKPGASVKVSCKASGYTFTDYSMHWVRQAPGQGLEWMGWINIETGEPTYAQGFTGRFVFSLDTSVSTAYLQISSLKAEDTAVYFCARDYYGTYFYAMDYWGQGTLVTVSS VL: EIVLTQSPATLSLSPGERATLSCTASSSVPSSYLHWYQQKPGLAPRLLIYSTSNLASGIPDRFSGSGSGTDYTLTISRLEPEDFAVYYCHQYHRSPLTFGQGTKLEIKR
-- reply 93200

The origin of these recorded values is patent US20230340155A1.
